# assay-protocol: H69AR cell proliferation blockers – human, duplicate replicates, primary screen (AID 580);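 note: 100% = mean luminescence of untreated wells and 0% = no signal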
# condition-summary: H69AR lung tumor cells viability, ATP luminescence, 72 h; at 10 µM; hits give low values

>  <compound>
COc1ccc(N2CCN(CCCN)CC2)cc1

>  <result-units>
%

>  <viability>
81.5

$$$$
>  <compound>
O=P(OCC(F)(F)C(F)F)(N1CCCCC1)N1CCCCC1

>  <result-units>
%

>  <viability>
117

$$$$
>  <compound>
Cn1c(C(=O)N2CCC3(CC2)OCCO3)cc2c(=O)n(C)c3ccccc3c21

>  <result-units>
%

>  <viability>
80.6

$$$$
>  <compound>
C=CCn1c(O)c(C(C)=NCc2cccnc2)c(=O)[nH]c1=O

>  <result-units>
%

>  <viability>
92.2

$$$$
>  <compound>
CCCC(C)C1C(C#N)=C(N)Oc2c1c(=O)oc1ccccc21 (configuration not stated)

>  <result-units>
%

>  <viability>
67.7

$$$$
>  <compound>
Cc1cc(N2C(=O)C3CCCN3C2c2cccc(Cl)c2)no1 (configuration not stated)

>  <result-units>
%

>  <viability>
109

$$$$
>  <compound>
Cc1ccc(C)c(NC2=NCCCS2)c1

>  <result-units>
%

>  <viability>
104

$$$$
>  <compound>
C[N+]1(C)CCN(c2ccccc2)CC1

>  <result-units>
%

>  <viability>
84.9

$$$$
>  <compound>
CCCNC(=O)c1c(N)n(Cc2ccc3c(c2)OCO3)c2nc3ccccc3nc12

>  <result-units>
%

>  <viability>
43.8

$$$$
>  <compound>
c1cncc(CNC2=NCCCCC2)c1

>  <result-units>
%

>  <viability>
97.4

$$$$
>  <compound>
CC[C@@H](CO)NC(=O)[C@@H]1C=C2c3cccc4c3c(cn4C)C[C@H]2N(C)C1

>  <result-units>
%

>  <viability>
95.4

$$$$
>  <compound>
N=C(N)c1c(O)n(C2CCCCC2)c(=O)n(C2CCCCC2)c1=O

>  <result-units>
%

>  <viability>
2.02

$$$$

###

# assay-protocol: RAM signaling pathway blockade in yeast – S. cerevisiae, Pdr1DBD-CYC8 efflux-inhibited sensitized strain, primary screen (AID 1298);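 note: 0% = DMSO untreated cells without growth and 100% = 10 µM 1-NA-PP1 full growth; higher means more yeast growth rescued from 5-FOA killing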
# condition-summary: S. cerevisiae cbk1-as DSE1-URA3 strain, 5-FOA growth OD615, 2 d; at 50 µM; hits give high values
# RAM network inhibition values compiled below
endpoint-name: RAM network inhibition (%)

>  <compound>
CCCCCCn1c(=O)c(C(=O)Nc2ccncc2)c(O)c2ccccc21

>  <result-units>
%

>  <data-value>
-1.58

$$$$
>  <compound>
Nc1ccccc1C(=O)c1ccccc1

>  <result-units>
%

>  <data-value>
2.5

$$$$
>  <compound>
c1cncc(C2CCCCN2Cc2ccc3c(c2)OCO3)c1 (centres undefined)

>  <result-units>
%

>  <data-value>
4.3

$$$$
>  <compound>
CN(C(=O)Oc1cccc2cccnc12)c1ccccc1

>  <result-units>
%

>  <data-value>
2.67

$$$$
>  <compound>
COc1ccccc1N=Cc1c(O)n(C)c(=O)n(C)c1=O

>  <result-units>
%

>  <data-value>
2.71

$$$$
>  <compound>
c1ccc2sc(C3CCCNC3)nc2c1 (centres undefined)

>  <result-units>
%

>  <data-value>
0.56

$$$$
>  <compound>
CC12CN3CC(C)(CN(C1)C3c1cccnc1)C2=O (centres undefined)

>  <result-units>
%

>  <data-value>
9

$$$$
>  <compound>
CC12CN3CC(C)(CN(C1)C3c1ccco1)C2=O (centres undefined)

>  <result-units>
%

>  <data-value>
2.07

$$$$
>  <compound>
CCOC(=O)N(CC)c1ccc(C(O)(C(=O)OCC)C(F)(F)F)cc1 (centres undefined)

>  <result-units>
%

>  <data-value>
0.46

$$$$
>  <compound>
COP(=S)(OC)SCN1C(=O)c2ccccc2C1=O

>  <result-units>
%

>  <data-value>
3.76

$$$$
>  <compound>
COc1ccc2nc(NC(=O)CCc3nc(C4=CCN(C)CC4)no3)sc2c1

>  <result-units>
%

>  <data-value>
5.11

$$$$
>  <compound>
CCOc1ccc(-n2c(CC)nc3ccccc3c2=O)cc1

>  <result-units>
%

>  <data-value>
3.89

$$$$
>  <compound>
CCOC(=O)c1c(C)c(P(=S)(N2CCOCC2)N2CCOCC2)n(C)c1C

>  <result-units>
%

>  <data-value>
2.36

$$$$
>  <compound>
CCN(c1ccc(C(O)(C(=O)OC)C(F)(F)F)cc1)S(=O)(=O)c1ccccc1 (centres undefined)

>  <result-units>
%

>  <data-value>
4.74

$$$$
>  <compound>
COc1ccccc1/C=C1/C(=N/O)C2CCN1CC2

>  <result-units>
%

>  <data-value>
6.29

$$$$
>  <compound>
O=C1CC(=O)N(c2ccc(Cl)cc2Cl)C(=O)N1

>  <result-units>
%

>  <data-value>
1.94

$$$$
>  <compound>
COc1ccc(C2SCC(=O)Nc3c2c(=O)[nH]n3C2CCCCCC2)cc1OC (centres undefined)

>  <result-units>
%

>  <data-value>
1.3

$$$$
>  <compound>
COc1cc(C2SCC(=O)Nc3c2c(=O)[nH]n3C2CCCCCC2)cc(OC)c1OC (centres undefined)

>  <result-units>
%

>  <data-value>
2.76

$$$$
>  <compound>
OC12Oc3ccccc3C=C1N1CCC2CC1 (centres undefined)

>  <result-units>
%

>  <data-value>
0.26

$$$$
>  <compound>
CN(C)C(=O)Oc1ccc(OC(=O)N(C)C)cc1

>  <result-units>
%

>  <data-value>
-0.32

$$$$
>  <compound>
Cc1cc(OC(=O)c2ccco2)c2c3c(c(=O)oc2c1)CCC3

>  <result-units>
%

>  <data-value>
4.5

$$$$
>  <compound>
CCCCP(=O)(O)c1ccccc1

>  <result-units>
%

>  <data-value>
3.03

$$$$
>  <compound>
O=C(O)C1CN2CCC1CC2 (centres undefined)

>  <result-units>
%

>  <data-value>
-0.77

$$$$
>  <compound>
COC(=O)c1ccc(CN2CCN(Cc3ccccc3)CC2)cc1

>  <result-units>
%

>  <data-value>
1.37

$$$$
>  <compound>
CC(=O)c1cccc(NC2=NCC(C)S2)c1 (centres undefined)

>  <result-units>
%

>  <data-value>
2.41

$$$$
>  <compound>
CCCCCCOc1ccc(CN2CCN(C)CC2)cc1

>  <result-units>
%

>  <data-value>
0.09

$$$$
>  <compound>
O=C(c1cccs1)C1CN2CCC1CC2 (centres undefined)

>  <result-units>
%

>  <data-value>
5.95

$$$$
>  <compound>
COc1ccc2[nH]c(C)c(CCN3CCC(=O)C(C)C3C)c2c1 (centres undefined)

>  <result-units>
%

>  <data-value>
3.24

$$$$
>  <compound>
COc1cc2c(cc1OC)-c1c(OC)c(OC)cc3c1C(C2)N(C)CC3 (centres undefined)

>  <result-units>
%

>  <data-value>
6.23

$$$$
>  <compound>
FC(F)(F)/C(=N\P(=S)(N1CCOCC1)N1CCOCC1)N1CCOCC1

>  <result-units>
%

>  <data-value>
5.4

$$$$
>  <compound>
CN1CCN(c2ccc(NC(=O)C(C)(C)C)cc2)CC1

>  <result-units>
%

>  <data-value>
5.29

$$$$
>  <compound>
O=c1c2ccccc2nc(-c2ccco2)n1-c1ccccn1

>  <result-units>
%

>  <data-value>
3.37

$$$$
>  <compound>
CN1CCN(c2nc3ccccc3c(=O)n2-c2ccccc2)CC1

>  <result-units>
%

>  <data-value>
1.34

$$$$
>  <compound>
O=c1cccc2n1CC1CC2CN(c2ncnc3c2cnn3-c2ccccc2)C1 (centres undefined)

>  <result-units>
%

>  <data-value>
1.58

$$$$
>  <compound>
CCOc1ccc(C2SCC(=O)Nc3c2c(=O)[nH]n3C2CCCCCC2)cc1 (centres undefined)

>  <result-units>
%

>  <data-value>
4

$$$$
>  <compound>
Cn1c(O)c(C=NCCOc2ccc(Cl)cc2)c(=O)n(C)c1=O

>  <result-units>
%

>  <data-value>
4.1

$$$$
>  <compound>
Cc1cc(OCC(=O)OC(C)(C)C)c2c3c(c(=O)oc2c1)CCC3

>  <result-units>
%

>  <data-value>
5.46

$$$$
>  <compound>
CC12CCC(=O)C=C1CCC1C2CCC2(C)C(O)CCC12 (centres undefined)

>  <result-units>
%

>  <data-value>
1.32

$$$$
>  <compound>
CCOC(=O)c1cncn1C(C)c1ccccc1 (centres undefined)

>  <result-units>
%

>  <data-value>
3.01

$$$$
>  <compound>
Clc1cccc(CN2CCCCC2c2cccnc2)c1 (centres undefined)

>  <result-units>
%

>  <data-value>
-0.74

$$$$
>  <compound>
Cn1c(O)c(C=Nc2ccc(Cl)cc2)c(=O)n(C)c1=O

>  <result-units>
%

>  <data-value>
4.04

$$$$
>  <compound>
Cc1cccc(N2CCc3c2nc2ccccc2c3N)c1

>  <result-units>
%

>  <data-value>
4.96

$$$$
>  <compound>
C=Cn1ccnc1P(=S)(c1c(C)nn(-c2ccccc2)c1C)c1nccn1C=C

>  <result-units>
%

>  <data-value>
5.43

$$$$
>  <compound>
CN1CCN(c2ncnc3ccc(Br)cc23)CC1

>  <result-units>
%

>  <data-value>
2.92

$$$$
>  <compound>
CCCOC(=O)COc1cc(C)cc2oc(=O)c3c(c12)CCC3

>  <result-units>
%

>  <data-value>
4.39

$$$$
>  <compound>
CCc1sc(C(=O)N2CCC3(CC2)OCCO3)cc1Br

>  <result-units>
%

>  <data-value>
1.59

$$$$
>  <compound>
CN1CC=C(c2c[nH]c3ccccc23)CC1

>  <result-units>
%

>  <data-value>
-1.66

$$$$
>  <compound>
C=Cn1ccnc1P(=S)(c1cc(N(CC)CC)ns1)c1nccn1C=C

>  <result-units>
%

>  <data-value>
2.27

$$$$
>  <compound>
COc1cc2c(cc1OC)C(C(=O)N1CCC3(CC1)OCCO3)C(c1ccccc1F)N(C)C2=O (centres undefined)

>  <result-units>
%

>  <data-value>
0.57

$$$$
